# system-tested: Adrenergic α2B (Homo sapiens, UniProt P18089)
# Sequence (P18089 1-450): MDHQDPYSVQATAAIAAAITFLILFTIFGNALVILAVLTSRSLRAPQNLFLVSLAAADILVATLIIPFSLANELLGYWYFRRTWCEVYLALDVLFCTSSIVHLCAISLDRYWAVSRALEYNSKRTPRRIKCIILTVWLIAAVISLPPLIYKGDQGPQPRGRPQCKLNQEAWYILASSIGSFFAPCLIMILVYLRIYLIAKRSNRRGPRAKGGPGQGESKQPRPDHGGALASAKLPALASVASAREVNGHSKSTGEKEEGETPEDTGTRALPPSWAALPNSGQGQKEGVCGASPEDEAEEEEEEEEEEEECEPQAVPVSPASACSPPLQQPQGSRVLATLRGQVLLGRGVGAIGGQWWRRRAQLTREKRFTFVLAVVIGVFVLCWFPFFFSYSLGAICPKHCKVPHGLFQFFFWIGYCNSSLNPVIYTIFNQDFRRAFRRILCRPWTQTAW
pKi: −log10 of the molar value.
parameter-measured: pKi

INPUT: I would be grateful if you could share the reported pKi for `O=S(=O)(Nc1nccs1)c1cc(Cl)c(NCCCCNC[C@H]2CCCN2)cc1F` .
OUTPUT: < 5.00

---

# system-tested: Adrenergic α2A (Homo sapiens)
# Sequence (P08913 whole entry): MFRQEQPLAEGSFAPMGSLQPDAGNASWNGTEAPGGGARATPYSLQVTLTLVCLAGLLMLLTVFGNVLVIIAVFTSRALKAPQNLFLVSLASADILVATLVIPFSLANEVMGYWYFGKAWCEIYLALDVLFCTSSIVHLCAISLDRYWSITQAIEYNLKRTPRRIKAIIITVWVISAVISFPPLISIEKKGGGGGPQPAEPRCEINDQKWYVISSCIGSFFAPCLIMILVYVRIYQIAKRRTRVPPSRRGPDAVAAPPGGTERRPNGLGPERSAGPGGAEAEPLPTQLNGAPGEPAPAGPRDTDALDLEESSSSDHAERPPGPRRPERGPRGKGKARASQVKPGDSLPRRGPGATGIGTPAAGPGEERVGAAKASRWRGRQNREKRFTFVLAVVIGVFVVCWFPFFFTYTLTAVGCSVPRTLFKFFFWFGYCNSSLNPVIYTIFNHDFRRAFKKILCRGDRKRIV
parameter-measured: Ki

INPUT: I would be grateful if you could share the reported Ki for `O=S(=O)(Nc1nccs1)c1cc(Cl)c(NCCCCNC[C@H]2CCCN2)cc1F` .
OUTPUT: > 10 µM

---

# system-tested: (Homo sapiens, UniProt Q12809)
# Sequence (Q12809 whole entry): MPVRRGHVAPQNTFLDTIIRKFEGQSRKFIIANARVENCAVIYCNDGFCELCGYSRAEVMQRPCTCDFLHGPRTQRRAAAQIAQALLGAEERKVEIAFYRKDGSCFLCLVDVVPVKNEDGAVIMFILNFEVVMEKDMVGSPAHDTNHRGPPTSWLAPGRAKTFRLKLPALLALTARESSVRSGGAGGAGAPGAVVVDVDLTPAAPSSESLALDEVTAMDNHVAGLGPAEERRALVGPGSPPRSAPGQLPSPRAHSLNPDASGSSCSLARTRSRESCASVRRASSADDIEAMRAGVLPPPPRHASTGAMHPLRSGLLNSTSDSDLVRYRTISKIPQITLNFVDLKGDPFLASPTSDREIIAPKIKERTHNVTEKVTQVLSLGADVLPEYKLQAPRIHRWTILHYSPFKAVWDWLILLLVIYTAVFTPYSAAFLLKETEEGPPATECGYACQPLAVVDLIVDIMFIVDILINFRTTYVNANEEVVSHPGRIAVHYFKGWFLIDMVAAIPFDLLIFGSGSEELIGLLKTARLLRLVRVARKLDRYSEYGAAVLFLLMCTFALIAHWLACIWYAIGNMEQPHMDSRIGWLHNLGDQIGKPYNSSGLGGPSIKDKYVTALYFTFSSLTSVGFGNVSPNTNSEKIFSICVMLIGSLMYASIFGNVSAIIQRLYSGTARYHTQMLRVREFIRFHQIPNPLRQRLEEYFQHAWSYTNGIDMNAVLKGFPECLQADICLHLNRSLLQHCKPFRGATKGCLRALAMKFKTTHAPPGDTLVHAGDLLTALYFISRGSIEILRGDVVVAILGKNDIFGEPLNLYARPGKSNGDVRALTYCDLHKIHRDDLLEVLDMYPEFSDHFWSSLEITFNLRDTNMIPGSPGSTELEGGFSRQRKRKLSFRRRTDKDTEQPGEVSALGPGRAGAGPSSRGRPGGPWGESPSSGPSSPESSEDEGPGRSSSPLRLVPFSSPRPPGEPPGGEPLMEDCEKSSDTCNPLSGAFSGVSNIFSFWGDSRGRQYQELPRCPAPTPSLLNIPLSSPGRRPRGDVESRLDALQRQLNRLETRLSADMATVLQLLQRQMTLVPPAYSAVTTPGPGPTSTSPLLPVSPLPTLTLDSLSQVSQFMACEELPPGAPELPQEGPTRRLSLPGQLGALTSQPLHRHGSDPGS
parameter-measured: Ki (µM)
Report only the number, with the unit µM understood.

INPUT: Entry COc1ccc(CCC(c2cccc3c2CNCC3)n2c(=O)oc3cc(S(=O)(=O)Nc4ncns4)c(F)cc32)cc1 (centres unmarked) [SSCI-6] , system (Homo sapiens, UniProt Q12809): what Ki was measured?
OUTPUT: 17

---

# protocol-details: Rat plasma protein binding
# Assay type: in vitro ADME
parameter-measured: fraction unbound
Keep it simple and answer with nothing but the number.

compound: COc1ccc(CCC(c2cccc3c2CNCC3)n2c(=O)oc3cc(S(=O)(=O)Nc4ncns4)c(F)cc32)cc1 (centres unmarked)
fraction unbound: 0.018

Okay, next one:
INPUT: I would be grateful if you could share the reported fraction unbound for `O=S(=O)(Nc1nccs1)c1cc(Cl)c(NCCCCNC[C@H]2CCCN2)cc1F` .
OUTPUT: 0.067

---

# system-tested: Adrenergic α1D (Homo sapiens, UniProt P25100)
# Sequence (P25100 1-572): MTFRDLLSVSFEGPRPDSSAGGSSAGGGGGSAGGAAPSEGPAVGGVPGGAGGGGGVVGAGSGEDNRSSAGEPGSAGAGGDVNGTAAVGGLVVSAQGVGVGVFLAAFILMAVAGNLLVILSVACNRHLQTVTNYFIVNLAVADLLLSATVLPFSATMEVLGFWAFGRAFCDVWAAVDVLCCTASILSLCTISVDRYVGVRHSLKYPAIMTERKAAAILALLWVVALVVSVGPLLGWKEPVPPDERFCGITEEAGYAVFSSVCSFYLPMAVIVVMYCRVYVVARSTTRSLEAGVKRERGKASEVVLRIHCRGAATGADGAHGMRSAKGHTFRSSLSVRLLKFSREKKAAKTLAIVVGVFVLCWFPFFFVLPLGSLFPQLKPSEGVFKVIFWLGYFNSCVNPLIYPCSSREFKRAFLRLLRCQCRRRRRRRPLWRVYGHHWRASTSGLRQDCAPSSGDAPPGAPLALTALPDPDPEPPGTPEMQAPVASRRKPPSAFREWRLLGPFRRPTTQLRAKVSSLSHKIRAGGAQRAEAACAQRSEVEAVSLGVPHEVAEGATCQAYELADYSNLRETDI
pKi: −log10 of the molar value.
parameter-measured: pKi

INPUT: Entry O=S(=O)(Nc1nccs1)c1cc(Cl)c(NCCCCNC[C@H]2CCCN2)cc1F [SSCI-1] , system Adrenergic α1D (Homo sapiens, UniProt P25100): what pKi was measured?
OUTPUT: < 5.00
